# System: washed rat platelets
# measurement_description: Thrombin (0.2 U/mL)-induced aggregation of washed platelets
# Assay type: cell-based
# assay_conditions: Rattus norvegicus, Platelet
measured_quantity: pIC50
Notebook: values listed as pIC50 are -log10 of the concentration (mol/L).

Value wanted: pIC50 (washed rat platelets) of entry "O=C1C[C@@H](c2ccc(O)cc2)Oc2cc(O)cc(O)c21"
3.16

====

# System: washed rat platelets
# measurement_description: Thrombin (0.2 U/mL)-induced aggregation of washed platelets
# Format: cell-based
measured_quantity: IC50

Given the compound "O=C1C[C@@H](c2ccc(O)cc2)Oc2cc(O)cc(O)c21" , what is its reported IC50?
~684 µM
